study target: Caspase-7 (Homo sapiens)
Construct: mixing the compounds with the respective active caspases; purchased BioVision K157-100
Sequence (P55210 24-198 limits assumed): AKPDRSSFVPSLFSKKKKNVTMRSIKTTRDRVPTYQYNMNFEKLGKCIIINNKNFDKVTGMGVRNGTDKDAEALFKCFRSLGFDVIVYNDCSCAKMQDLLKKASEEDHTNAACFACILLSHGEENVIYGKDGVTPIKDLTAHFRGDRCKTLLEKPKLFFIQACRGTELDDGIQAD
Sequence (P55210 207-303 limits assumed): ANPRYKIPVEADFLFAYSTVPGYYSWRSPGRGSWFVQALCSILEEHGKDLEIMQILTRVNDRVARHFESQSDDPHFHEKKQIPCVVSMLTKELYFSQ
measurement description: Caspase-7 inhibitor screening assay (BioVision kit, DEVD-AFC)
Type: biochemical
experimental context: 100 uM; read-out: % Inhibition at 100 uM Casp7
Where a name gives a salt, the structure may show the parent alone.
reported property: inhibition at 100 µM (%)
Field: numeric (%). Do not append units.

{"compound": "CC(C)(C)[C@@H](NC(=O)[C@H](CC(=O)O)NC(=O)OCc1ccccc1)C(=O)N1CC[C@@H]1C(=O)N[C@H](/C=C/S(C)(=O)=O)CC(=O)O", "quantitative readout": 100}
{"compound": "CC(C)(C)[C@H](NC(=O)c1ccc2ccccc2n1)C(=O)N1CCC[C@@H]1C(=O)N[C@H](/C=C/S(C)(=O)=O)CC(=O)O", "quantitative readout": 2}
{"compound": "CC(C)(C)[C@H](NC(=O)[C@H](CC(=O)O)NC(=O)OCc1ccccc1)C(=O)N1CCCC1C(=O)N[C@H](/C=C/S(C)(=O)=O)CC(=O)O (stereo in doubt)", "quantitative readout": 100}
{"compound": "CC(C)[C@H](NC(=O)OCc1ccccc1)C(=O)N[C@H](/C=C(\\Cl)S(C)(=O)=O)CC(=O)O", "quantitative readout": 60}
{"compound": "CC(C)(C)[C@H](NC(=O)c1ccc(N)c(Cl)c1)C(=O)N1CCCC1C(=O)N[C@H](/C=C/S(C)(=O)=O)CC(=O)O (stereo in doubt)", "quantitative readout": 91}

QUERY: Return inhibition at 100 µM for the following compound: `CC(C)(C)[C@H](NC(=O)c1ccc2ccccc2n1)C(=O)N1CC[C@@H]1C(=O)N[C@H](/C=C/S(C)(=O)=O)CC(=O)O`
RESULT: 0

QUERY: Return inhibition at 100 µM for the following compound: `CS(=O)(=O)/C=C/[C@H](CC(=O)O)NC(=O)[C@H]1CCCN1C(=O)[C@@H](NC(=O)[C@H](CC(=O)O)NC(=O)OCc1ccccc1)c1ccccc1`
RESULT: 97

QUERY: Return inhibition at 100 µM for the following compound: `CS(=O)(=O)/C=C/[C@H](CC(=O)O)NC(=O)[C@H](CCC(=O)O)NC(=O)c1ccc2ccccc2n1`
RESULT: 7

QUERY: Return inhibition at 100 µM for the following compound: CCOC(=O)/C=C/[C@@H](N)CC(=O)O [Compound 44, Asp ethyl vinyl ester tosyl salt]
RESULT: 0

QUERY: Return inhibition at 100 µM for the following compound: CC(C)(C)[C@H](NC(=O)c1ccc2ncccc2n1)C(=O)N1CCCC1C(=O)N[C@H](/C=C/S(C)(=O)=O)CC(=O)O (stereo in doubt)
RESULT: 0

QUERY: Return inhibition at 100 µM for the following compound: `CC(C)[C@H](NC(=O)[C@H](CCC(=O)O)NC(=O)[C@H](Cc1c[nH]c2ccccc12)NC(=O)OCc1ccccc1)C(=O)N[C@H](/C=C/S(C)(=O)=O)CC(=O)O`
RESULT: 90

QUERY: Return inhibition at 100 µM for the following compound: `CS(=O)(=O)/C=C/[C@H](CC(=O)O)NC(=O)[C@@H](N)CCC(=O)O`
RESULT: 0

QUERY: Return inhibition at 100 µM for the following compound: `CC(C)[C@H](NC(=O)c1ccc2ccccc2n1)C(=O)N[C@H](/C=C/S(C)(=O)=O)CC(=O)O`
RESULT: 19

QUERY: Return inhibition at 100 µM for the following compound: `CS(=O)(=O)/C=C/[C@H](CC(=O)O)NC(=O)[C@H]1CCC(=O)N1`
RESULT: 0
